Target: T1, 4H953-bH
T1 chain: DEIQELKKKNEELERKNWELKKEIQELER
Experiment: two-hybrid library CCNG1;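 further: natural log of median RNA to DNA barcode read ratio; higher means stronger binding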
Note to self: values exactly at -0.9 are T. So interaction score at or above -0.9 is T, below is F.

Please review the following examples before continuing.
binder: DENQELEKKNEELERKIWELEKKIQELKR [4H1446-bH]
category label: T

binder: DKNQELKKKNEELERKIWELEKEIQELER [4H4001-bH]
category label: F

binder: DEIQELEKKNEELKREIWELKKKIQELKR [4H462-bH]
category label: T

binder: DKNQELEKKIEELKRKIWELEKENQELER [4H3427-bH]
category label: F

binder: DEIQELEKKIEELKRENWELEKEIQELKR [4H338-bH]
category label: T

Alright, here's another binder for you.
Textbook exercise: given the entry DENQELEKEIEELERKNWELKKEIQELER [4H1081-bH] , state whether its interaction score is greater than or equal to -0.9. F
